target desc: 5-hydroxytryptamine receptor 2A (Homo sapiens) (UniProt P28223)
Sequence (P28223 whole entry): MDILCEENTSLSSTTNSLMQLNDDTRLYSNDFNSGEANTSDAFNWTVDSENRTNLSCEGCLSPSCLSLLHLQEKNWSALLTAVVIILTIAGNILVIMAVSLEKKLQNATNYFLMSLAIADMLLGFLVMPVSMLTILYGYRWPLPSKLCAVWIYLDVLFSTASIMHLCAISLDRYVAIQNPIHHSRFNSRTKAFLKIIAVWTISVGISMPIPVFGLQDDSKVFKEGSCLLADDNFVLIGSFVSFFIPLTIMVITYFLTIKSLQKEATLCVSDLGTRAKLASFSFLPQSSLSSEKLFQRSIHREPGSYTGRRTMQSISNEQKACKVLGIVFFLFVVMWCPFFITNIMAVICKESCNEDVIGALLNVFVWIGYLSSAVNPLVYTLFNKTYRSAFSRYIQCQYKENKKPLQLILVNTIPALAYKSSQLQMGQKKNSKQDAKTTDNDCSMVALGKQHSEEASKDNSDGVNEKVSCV
procedure text: Binding affinity to 5HT-2a receptor (unknown origin) at 10 uM by displacement assay relative to control
Reported inhibition values follow for various compounds
Write it as a number; the unit % goes unstated.

>>> quantitative_result("O=C(NCCCNC1CCCCC1)[C@H]1C[C@@H]1c1ccccc1 (racemic)")
50

Record request: inhibition value, item O=C(NCCN1CCN(Cc2ccccc2)CC1)[C@H]1C[C@@H]1c1ccccc1 (racemic) 50

Field entry: CCN(CC)CCNC(=O)[C@H]1C[C@@H]1c1ccccc1 (racemic) 50

* * *

Organism: Rattus norvegicus
procedure text: Displacement of [3H]1,3-di-O-tolylguanidine from sigma-2 receptor in rat cerebral cortex at 10 uM relative to control
Assay type: tissue-based
property label: inhibition (%)
Your answer is read as %, so omit the unit and give the number.

Consider the reported inhibition for these compounds:
>>> quantitative_result("O=C([C@H]1C[C@@H]1c1ccccc1)N1CCC(N2CCCCC2)CC1 (racemic)")
50
>>> quantitative_result("C=CCN1CC[C@]2(C)c3cc(O)ccc3C[C@@H]1[C@@H]2C")
29
>>> quantitative_result("O=C([C@H]1C[C@@H]1c1ccc(F)cc1)N1CCC(N2CCCCC2)CC1 (racemic)")
61

Now consider a different compound.
// returns reported inhibition for input `COc1ccc(CCN2CCN(CCCc3ccccc3)CC2)cc1OC` 99

* * *

Some molecules, each annotated with its measured pKa.
procedure text: Dissociation constant, pKa of the compound
Assay type: physicochemical
Give the value as a plain number.

>>> quantitative_result("O=C(NCCCNC1CCCCC1)[C@H]1C[C@@H]1c1ccccc1 (racemic)")
10.1
>>> quantitative_result("O=C(NC1CCC(N2CCCCC2)CC1)[C@H]1C[C@@H]1c1ccccc1 (mixture of isomers)")
9.6
>>> quantitative_result("CC(C)N(CCNC(=O)[C@H]1C[C@@H]1c1ccccc1)C(C)C (racemic)")
9.7
>>> quantitative_result("O=C([C@H]1C[C@@H]1c1ccccc1)N1CCC(N2CCCCC2)CC1 (racemic)")
9.3

Now let's try a different one.
Record request: pKa value, item CN(C)CC(C)(C)CNC(=O)[C@H]1C[C@@H]1c1ccccc1 (racemic) 8.9

* * *

procedure text: Apparent permeability across apical to basolateral side in human Caco2 cells at 20 uM measured up to 3 hrs
Format: ADME, cell-based
run parameters: Caco-2
property label: Papp A→B at 3 h, 20 µM (×10⁻⁶ cm/s)
// units = ×10⁻⁶ cm/s; emit number, no label

Find the recorded Papp A→B at 3 h, 20 µM belonging to `C=CCN1CC[C@]2(C)c3cc(O)ccc3C[C@@H]1[C@@H]2C` and report it. 20.2

Request: O=C([C@H]1C[C@@H]1c1ccccc1)N1CCC(N2CCCCC2)CC1 (racemic) 16.6

* * *

Species: Homo sapiens
procedure text: Binding affinity to Ca2+ channel (unknown origin) at 10 uM by displacement assay relative to control
Measured inhibition by item
A number alone suffices; assume %.

>>> quantitative_result("O=C(NCCCNC1CCCCC1)[C@H]1C[C@@H]1c1ccccc1 (stereo in doubt; (+)-1)")
50

Attention now shifts to the item below.
Give its inhibition value. Item: O=C([C@H]1C[C@@H]1c1ccccc1)N1CCC(N2CCCCC2)CC1 (racemic) 50

* * *

procedure text: Intrinsic clearance in rat liver microsomes measured per mg of protein
Type: ADME
run parameters: read-out: CLH
property label: microsomal CLint

Please review the following examples before continuing.
>>> result("O=C(NCCCN1CCN(Cc2c(F)cccc2Cl)CC1)[C@H]1C[C@@H]1c1ccccc1 (racemic)")
"305 µL/min/mg"
>>> result("O=C(NCCCNC1CCCCC1)[C@H]1C[C@@H]1c1ccccc1 (stereo in doubt; (+)-1)")
"147 µL/min/mg"
>>> result("O=C(NCCN1CCN(Cc2ccc(Cl)c(Cl)c2)CC1)[C@H]1C[C@@H]1c1ccccc1 (racemic)")
"200 µL/min/mg"
>>> result("O=C([C@H]1C[C@@H]1c1ccccc1)N1CCC(N2CCCCC2)CC1 (racemic)")
"32 µL/min/mg"

Would you kindly share the measured microsomal CLint for O=C(NCCN1CCN(Cc2ccccc2)CC1)[C@H]1C[C@@H]1c1ccccc1 (racemic) ? 122 µL/min/mg

Request: `C=CCN1CC[C@]2(C)c3cc(O)ccc3C[C@@H]1[C@@H]2C` 313 µL/min/mg

Please do the same for O=C([C@H]1C[C@@H]1c1ccccc1)N1CCC(N2CCCC2)CC1 (racemic) as well. 25 µL/min/mg

// same read-out, input: O=C(NCCN1CCN(Cc2c(F)cccc2Cl)CC1)[C@H]1C[C@@H]1c1ccccc1 (racemic) 283 µL/min/mg

* * *

procedure text: Octanol-water distribution coefficient, log D of the compound at pH 7.4
Type: physicochemical
run parameters: read-out: logD
// label = condition met if logD is not less than 1, otherwise condition not met

Example results:
>>> assigned_label("O=C(NCCN1CCN(Cc2c(F)cccc2Cl)CC1)[C@H]1C[C@@H]1c1ccccc1 (racemic)")
"condition met"
>>> assigned_label("O=C(NCCCN1CCN(Cc2c(F)cccc2Cl)CC1)[C@H]1C[C@@H]1c1ccccc1 (racemic)")
"condition met"
>>> assigned_label("O=C(NCCN1CCN(Cc2ccccc2)CC1)[C@H]1C[C@@H]1c1ccccc1 (racemic)")
"condition met"

Moving on to the next molecule.
Reported logD at or above 1? O=C(NCCN1CCCC1)[C@H]1C[C@@H]1c1ccccc1 (racemic) condition not met

* * *

Recorded Kp at 40 min for the following molecules
procedure text: Ratio of drug level in brain to plasma in C57BL6/J mouse at 1 mg/kg, ip measured at 40 mins
Assay type: ADME, organism-based
Set-up: dose 1 mg/kg, route intraperitoneal
run parameters: brain and plasma, read-out: BPR
Respond with the number and no other words.

>>> quantitative_result("C=CCN1CC[C@]2(C)c3cc(O)ccc3C[C@@H]1[C@@H]2C")
5.64

Turning now to a further record.
Param item = O=C([C@H]1C[C@@H]1c1ccccc1)N1CCC(N2CCCCC2)CC1 (racemic) ; retrieve measured Kp at 40 min. 13.5

* * *

// inhibition lookup, one value per entry
target desc: Adrenergic receptor alpha-1 (Homo sapiens) (UniProt P35348+P25100+P35368)
procedure text: Binding affinity to adrenergic alpha-1 receptor (unknown origin) at 10 uM by displacement assay relative to control
Assay type: protein assay
Quick note: give the figure in %, leave out the unit.

# inhibition lookup, item O=C(NCCCNC1CCCCC1)[C@H]1C[C@@H]1c1ccccc1 (racemic) 50

Try the molecule O=C(NCCCNC1CCCCC1)[C@H]1C[C@@H]1c1ccccc1 (stereo in doubt; (+)-1) 50

Moving on to the next molecule: O=C(NCCCN1CCN(Cc2c(F)cccc2Cl)CC1)[C@H]1C[C@@H]1c1ccccc1 (racemic) 50

* * *

target desc: 5-hydroxytryptamine receptor 2A (Homo sapiens) (UniProt P28223)
procedure text: Binding affinity to 5HT-2a receptor (unknown origin) at 10 uM by displacement assay relative to control
property label: inhibition

Given O=C(NCCN1CCN(C(=O)c2c(F)cccc2Cl)CC1)[C@H]1C[C@@H]1c1ccccc1 (racemic) , state its recorded inhibition. > 90%

Same lookup for O=C(NCCCNC1CCCCC1)[C@H]1C[C@@H]1c1ccccc1 (stereo in doubt; (+)-1) , please. > 90%

Next: O=C(NCCN1CCCC1)[C@H]1C[C@@H]1c1ccccc1 (racemic) > 90%

* * *

procedure text: Intrinsic clearance in rat liver microsomes measured per mg of protein
Format: ADME
run parameters: read-out: CLH
In this section, each of the molecules is paired with its reported microsomal CLint.

Quick one: microsomal CLint for O=C([C@H]1C[C@@H]1c1ccc(F)cc1)N1CCC(CNCC2CCCCC2)CC1 (racemic) ? 17 µL/min/mg

Repeat with CC(C)N(CCNC(=O)[C@H]1C[C@@H]1c1ccccc1)C(C)C (racemic) > 300 µL/min/mg

For O=C(NCCN1CCN(C(=O)c2c(F)cccc2Cl)CC1)[C@H]1C[C@@H]1c1ccccc1 (racemic) then? 81 µL/min/mg

Cited source for all entries: ChEMBL document CHEMBL3217650
